Below, each of the compounds is paired with its reported inhibition value.
target: Cytochrome P450 2C19 (Homo sapiens) (UniProt P33261); assay: blockers of cytochrome P450 2C19 activity – biochemical, luminescence, ADME assay, primary screen (AID 778); details: CYP2C19 Supersomes, luciferin-H EGE luminescence, 30 min; at 5 µM; active compounds read high;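 note: plate controls were negative control wells for no effect and 2.5 mM tranylcypromine positive control for full effect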
Sequence (P33261 whole entry, looked up): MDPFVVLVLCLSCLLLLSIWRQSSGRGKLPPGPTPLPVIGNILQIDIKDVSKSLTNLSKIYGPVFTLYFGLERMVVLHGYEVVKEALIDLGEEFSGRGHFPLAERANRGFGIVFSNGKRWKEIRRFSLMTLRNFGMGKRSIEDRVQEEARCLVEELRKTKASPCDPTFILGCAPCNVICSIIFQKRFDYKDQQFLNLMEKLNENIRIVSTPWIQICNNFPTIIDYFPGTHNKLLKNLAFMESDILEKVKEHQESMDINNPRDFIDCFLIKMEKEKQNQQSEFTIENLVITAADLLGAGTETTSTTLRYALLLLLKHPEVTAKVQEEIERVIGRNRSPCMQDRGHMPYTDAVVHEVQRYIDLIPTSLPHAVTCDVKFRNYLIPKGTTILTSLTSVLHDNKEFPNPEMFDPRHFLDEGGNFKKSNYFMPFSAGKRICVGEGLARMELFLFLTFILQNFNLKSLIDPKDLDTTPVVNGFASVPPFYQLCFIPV
The campaign covered roughly 96,000 compounds. About 20,000 (21%) were called active. The list is a sample of the results.
# unit: % | format: bare number

Answered cases to consult:
CC(C)C(c1nnnn1CCc1ccccc1)N1CCN(C(=O)c2ccco2)CC1 (stereo unspecified)
15.7
CCOC(=O)Cn1c(SC)nc2sc3c(c2c1=O)CC(C)(C)OC3
8.2
CCC(c1nnnn1C1CCCC1)N1CCN(C(=O)c2ccco2)CC1 (stereo unspecified)
61.3

Value sought: inhibition, system Cytochrome P450 2C19 (Homo sapiens) (UniProt P33261), item `CC(=O)c1ccc(-n2nnnc2SCC(=O)N2CCN(C(=O)c3ccco3)CC2)cc1` . Result: -3.8

Value sought: inhibition, system Cytochrome P450 2C19 (Homo sapiens) (UniProt P33261), item `CC/C(C)=N/Nc1nc2sc3c(c2c(=O)[nH]1)CC(C)(C)OC3` . Result: 36.9

Value sought: inhibition, system Cytochrome P450 2C19 (Homo sapiens) (UniProt P33261), item `CCOC(=O)CSc1nc2sc3c(c2c(=O)[nH]1)CC(C)(C)OC3` . Result: 67.6

Value sought: inhibition, system Cytochrome P450 2C19 (Homo sapiens) (UniProt P33261), item CSc1nnc2c(n1)OC(c1ccsc1)N(C(C)=O)c1ccccc1-2 (stereo unspecified) . Result: 5.9

Value sought: inhibition, system Cytochrome P450 2C19 (Homo sapiens) (UniProt P33261), item `OCCNCCCCOc1ccccc1F` . Result: -2.2

Value sought: inhibition, system Cytochrome P450 2C19 (Homo sapiens) (UniProt P33261), item `O=c1cc(CN2CCN(c3cccc(Cl)c3)CC2)c2cc3c(cc2o1)CCCC3` . Result: 12.6

Value sought: inhibition, system Cytochrome P450 2C19 (Homo sapiens) (UniProt P33261), item `c1ccc(Nc2nc(N3CCOCC3)c3ccccc3n2)cc1` . Result: 55.6

Value sought: inhibition, system Cytochrome P450 2C19 (Homo sapiens) (UniProt P33261), item CC(C)C(=O)N1CCN(CCN=CC2=C(O)CC(c3ccco3)CC2=O)CC1 (stereo unspecified) . Result: 2.8

----------
molecular target: Cytochrome P450 2C19 (Homo sapiens) (UniProt P33261); assay: blockers of cytochrome P450 2C19 activity – biochemical, luminescence, ADME assay, primary screen (AID 778); details: CYP2C19 Supersomes, luciferin-H EGE luminescence, 30 min; at 5 µM
In all, about 96,000 compounds went through this assay and about 20,000 (21%) were called active.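 The calls were made as follows: active = CYP2C19 inhibition above a set limit at 5 µM in the primary screen (cut at about 50% in these data); inactive = the rest.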 These entries were drawn from the full list.
Pick one and only one: T for active, F for inactive

Worked cases, answers included:
COC(=O)Cc1csc(Nc2c(C)n(C)n(-c3ccccc3)c2=O)n1
F
O=C(NCCN1CCN(Cc2ccccc2)CC1)c1cc2c(=O)[nH]c3ccccc3c2s1
F
O=[N+]([O-])c1ccc(N2CCN(S(=O)(=O)c3ccc4ccccc4c3)CC2)cc1NCc1ccco1
F
COc1ccc(CN2CN(C(C)C)CSC2=S)cc1
F
CN=C1S/C(=C\c2ccc(Sc3ccc(Cl)cc3)o2)C(=O)N1C
F
O=C(c1ccccc1)N1CCN(c2ccc([N+](=O)[O-])c(NCc3ccco3)c2)CC1
T
CN=C1SC(C(=O)O)CC(=O)N1C (stereo unspecified)
F
Cc1c(C=O)c2ccccn2c1C(=O)c1ccncc1
T

Hi, do you know how `O=C(NCc1ccco1)c1nc(-c2ccccc2)n(-c2ccccc2)n1` came out in this test?
F

Hi, do you know how `Cc1cc(C=O)c(C)n1-c1ccc(NC2CCCCC2)c([N+](=O)[O-])c1` came out in this test?
F

Hi, do you know how `CCCCNC(=S)NNC(=O)c1cc(C)on1` came out in this test?
F

----------
molecular target: Cytochrome P450 2C19 (Homo sapiens) (UniProt P33261); experiment: blockers of cytochrome P450 2C19 activity – biochemical, luminescence, ADME assay, primary screen (AID 778); details: CYP2C19 Supersomes, luciferin-H EGE luminescence, 30 min; at 5 µM
The whole screen tested about 96,000 compounds, of which about 20,000 (21%) were called active.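 How the source made its calls: active means CYP2C19 inhibition above a set limit at 5 µM in the primary screen (cut at about 50% in these data); inactive means the rest.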 A selection follows.
Pick one and only one: 1 (yes) = active, 0 (no) = inactive

CC(C)CCSc1ncnc2c1oc1nc3c(cc12)COC(C)(C)C3
0 (no)

Consider the record given below.
Hi, do you know how `CC(=O)N1CCN(CCN=CC2=C(O)CC(C)(C)CC2=O)CC1` came out in this test?
0 (no)

----------
target: Cytochrome P450 2C19 (Homo sapiens) (UniProt P33261); assay: blockers of cytochrome P450 2C19 activity – biochemical, luminescence, ADME assay, primary screen (AID 778); conditions: CYP2C19 Supersomes, luciferin-H EGE luminescence, 30 min; at 5 µM;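 note: plate controls were negative control wells for no effect and 2.5 mM tranylcypromine positive control for full effect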
Out of some 96,000 compounds screened, about 20,000 (21%) were called active.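 Rule for the calls: active = CYP2C19 inhibition above a set limit at 5 µM in the primary screen (cut at about 50% in these data); inactive = the rest.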 Not all results are given here.
Pick one and only one: 1 (yes) (active), 0 (no) (inactive)

Worked cases, answers included:
Cc1cccc(N(CC(=O)N=Nc2c(O)[nH]c3ccccc23)S(C)(=O)=O)c1C
0 (no)
Cc1cc(NC(=O)c2cccc(N3C(=O)CCC3=O)c2)no1
0 (no)
CCOC(=O)c1c(CN2CCOCC2)n(-c2ccccc2)c2ccc(O)cc12
0 (no)
O=C(NCc1ccco1)C1CCCN(S(=O)(=O)c2ccccc2)C1 (centres undefined)
0 (no)
Cc1cccc(N2CCN(C(=O)C3CCN(S(=O)(=O)c4cnc[nH]4)CC3)CC2)c1C
0 (no)

Hi, do you know how COc1cccc(N2CCN(C(=O)C3CCCN(S(=O)(=O)c4cnc[nH]4)C3)CC2)c1 (centres undefined) came out in this test?
0 (no)

Hi, do you know how CCOC(=O)C1=C(CN2CCc3ccccc32)NC(=O)NC1c1cccc([N+](=O)[O-])c1 (centres undefined) came out in this test?
1 (yes)

----------
molecular target: Cytochrome P450 2C19 (Homo sapiens); test: blockers of cytochrome P450 2C19 activity – biochemical, luminescence, ADME assay, primary screen (AID 778); details: CYP2C19 Supersomes, luciferin-H EGE luminescence, 30 min; at 5 µM; active compounds read high;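 note: plate controls were negative control wells for no effect and 2.5 mM tranylcypromine positive control for full effect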
Hit rate of the full screen: of about 96,000 compounds, about 20,000 (21%) were called active. Not all results are given here.
Below, each of the compounds is paired with its reported inhibition value.
# unit: % | format: bare number

CCc1c(O)nc(SCC(=O)N2CCCCC2)n(-c2ccccc2C)c1=O
0.9
COc1ccccc1CNC(=O)C1CCN(S(C)(=O)=O)CC1
2.2
Cc1cccc(NC(=O)C2CCCN2S(=O)(=O)c2ccc(F)cc2)c1C (stereo unspecified)
16.2
CS(=O)(=O)N(CC(=O)N1CCN(c2ccc(F)cc2)CC1)C1CCCCC1
6.9
CS(=O)(=O)N(CC(=O)Nc1ccc(Cl)c(Cl)c1)C1CCCCC1
60.7
O=C(NCc1cccs1)C1CCN(S(=O)(=O)c2ccc3c(c2)OCCO3)CC1
17.6

Value sought: inhibition, system Cytochrome P450 2C19 (Homo sapiens), item `Cc1noc(C)c1CSc1nc2cc(S(=O)(=O)N3CCOCC3)ccc2o1` . Result: 63.9

Value sought: inhibition, system Cytochrome P450 2C19 (Homo sapiens), item O=C(O)C1CCCN1S(=O)(=O)c1ccc2c(c1)CCC2 (stereo unspecified) . Result: -10.4

Value sought: inhibition, system Cytochrome P450 2C19 (Homo sapiens), item CSc1cccc(NC(=O)C2CCCN2S(=O)(=O)c2ccc3c(c2)CCC(=O)N3)c1 (stereo unspecified) . Result: 56.8

Value sought: inhibition, system Cytochrome P450 2C19 (Homo sapiens), item `C=CCNc1nnc(C)c2ccccc12` . Result: -10.2

Value sought: inhibition, system Cytochrome P450 2C19 (Homo sapiens), item `O=C1CCc2cc(S(=O)(=O)N3CCC(C(=O)NCc4ccccc4Cl)CC3)ccc2N1` . Result: 88.6

----------
biological target: Cytochrome P450 2C19 (Homo sapiens); assay: blockers of cytochrome P450 2C19 activity – biochemical, luminescence, ADME assay, primary screen (AID 778); conditions: CYP2C19 Supersomes, luciferin-H EGE luminescence, 30 min; at 5 µM; active compounds read high;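 note: plate controls were negative control wells for no effect and 2.5 mM tranylcypromine positive control for full effect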
Screen size: about 96,000 compounds; about 20,000 (21%) were called active. The list is a sample of the results.
Label y when inhibition is at or above 20%; anything below gets n.

COc1ccc(SCc2noc(C(=O)NCC3CCCO3)c2C(=O)O)cc1 (configuration not stated)
n
COc1ccc(NC(=O)C(NC(C)=O)C(=O)NCc2ccccc2Cl)cc1 (configuration not stated)
n
Cc1cc(C)n2nc(C(=O)Oc3ccc4c(c3)OCO4)nc2n1
n
c1ccc(Nc2n[nH]nc2-c2ccccc2)cc1
y
CC(C)C(=O)Nc1ccc2c(c1)oc1ccccc12
n
O=C(Nc1ccc(Cl)cc1)OCc1cc(-c2ccccc2)on1
y
O=C(Nc1ccccc1)OCc1cc(-c2ccc(Cl)cc2)on1
n
O=C(c1ccco1)N1CCN(C(=O)C2c3ccccc3Oc3ccccc32)CC1
y
C#CC(C)(C)NC(=O)CSc1nc2c(c(=O)n(C)c(=O)n2C)n1CCCC
n
Nc1ccc(Nc2ccccc2)cc1
y

# bool: inhibition of `CCOC(=O)CNC(=O)CN1C(=O)CCSc2ccccc21` >= 20%
y

# bool: inhibition of `O=C(NCCCN1CCOCC1)c1cnn2c(-c3ccccc3)cc(-c3ccccc3)nc12` >= 20%
n
